Counter-ions that a name gives are not always drawn.
Please provide measured melting point for the entries that follow.

Returns the measured melting point for the input compound. Input: COc1nc2ccc(Br)cc2cc1C(c1ccc(Cl)cc1)C1(O)CCNC(Cc2ccccc2)C1 (stereo not drawn) [Compound 71]
138 °C

For the compound CC1CC(O)(C(c2ccc(Cl)cc2)c2cc3cc(Br)ccc3[nH]c2=O)CCN1 (stereo not drawn) (as salt: hydrochloride) [Compound 130] , what melting point is on record?
200 °C

For the compound shown here, COc1nc2ccc(Br)cc2cc1C(c1ccc(Cl)cc1)C1(O)CCNC(Cc2ccccc2)C1 (stereo not drawn) [Compound 70] , give the reported melting point.
112 °C

# melting point lookup, item O=c1[nH]c2ccc(Br)cc2cc1C(c1ccc(Cl)cc1)C1(O)CCNC(Cc2ccc(F)c(F)c2)C1 (stereo not drawn) (as salt: hydrochloride) [Compound 40]
224 °C

# lookup: melting point of COc1nc2ccc(Br)cc2cc1C(c1ccccc1)C1(O)CCNC(c2ccc(F)cc2C)C1 (stereo not drawn) [Compound 193]
147 °C

Data request, read-out melting point, for COc1nc2ccc(S(C)(=O)=O)cc2cc1C(c1ccc(Cl)cc1)C1(O)CCNCC1Cc1cccc[n+]1[O-] (stereo not drawn) [Compound 448]
182 °C

// returns reported melting point for input CN1CCC(O)(C(c2ccc(Cl)cc2)c2cc3cc(Br)ccc3[nH]c2=O)CC1Cc1ccccc1 (stereo not drawn) [Compound 84]
238 °C

Look up melting point: CS(=O)(=O)c1ccc2[nH]c(=O)c(C(c3ccc(Cl)cc3)C3(O)CCN[C@@H](Cc4ccc(F)c(F)c4)C3)cc2c1 (stereo in doubt) (as salt: hydrochloride) [Compound 205]
> 250 °C

# melting point lookup, item COc1nc2ccc(Br)cc2cc1C(c1ccc(Cl)cc1)C1(O)CCNC(Cc2ccccc2)C1 (stereo not drawn) (as salt: fumarate) [Compound 77]
155 °C

// returns reported melting point for input COc1nc2ccc(S(C)(=O)=O)cc2cc1C(c1ccc(Cl)cc1)C1(O)CCNC(c2ccc(F)cc2C)C1 (stereo not drawn) [Compound 219]
156 °C

Entry COc1nc2ccc(Cl)cc2cc1C(c1ccc(S(C)(=O)=O)cc1)C1(O)CCNC(c2ccc(F)cc2C)C1 (stereo not drawn) (as salt: fumarate) [Compound 368] : reported melting point = ?
144 °C

Recorded melting point for COc1nc2ccc(Br)cc2cc1C(c1ccccc1)C1(O)CCNC(c2ccc(F)cc2C)C1 (stereo not drawn) [Compound 61] , please?
141 °C

Fill in: melting point of COc1nc2ccc(Cl)cc2cc1C(c1ccc(Cl)cc1)C1(O)CCNCC1c1ccccc1 (stereo not drawn) (as salt: fumarate) [Compound 410] is ___
155 °C

Reported melting point, compound COc1nc2ccc(Br)cc2cc1C(c1cccc(Cl)c1)C1(O)CCNC(c2ccc(F)cc2C)C1 (stereo not drawn) (as salt: fumarate) [Compound 151] : ____
156 °C

I have this compound here, COc1nc2ccc(Cl)cc2cc1C(c1ccc(Cl)cc1)C1(O)CCNCC1F (stereo not drawn) [Compound 451] , and I need its recorded melting point.
110 °C

I would be grateful if you could share the reported melting point for Cc1cc(F)ccc1C1CC(O)(C(c2ccc(Cl)cc2)c2cc3cc(Br)ccc3[nH]c2=O)CCN1 (stereo not drawn) (as salt: hydrochloride) [Compound 106] .
> 250 °C

Which measured melting point value corresponds to C=CC1CC(O)(C(c2ccc(Cl)cc2)c2cc3cc(Br)ccc3nc2OC)CCN1 (stereo not drawn) [Compound 371] ?
158 °C

# melting point lookup, item CS(=O)(=O)c1ccc2[nH]c(=O)c(C(c3cccc(Cl)c3)C3(O)CCNC(Cc4ccc(F)cc4F)C3)cc2c1 (stereo not drawn) (as salt: hydrochloride) [Compound 307]
232 °C

Recorded melting point of Cc1cc(F)ccc1C1CC(O)(C(c2ccc(Cl)cc2)c2cc3cc(Cl)ccc3[nH]c2=O)CCN1 (stereo not drawn) (as salt: hydrochloride) [Compound 303] , please.
> 250 °C

Given the entry COc1nc2ccc(Cl)cc2cc1C(c1ccc(Cl)cc1)C1(O)CCNCC1Cc1ccccn1 (stereo not drawn) [Compound 438] , report its measured melting point.
188 °C

What does the data say about its melting point? Entry: COc1nc2ccc(S(C)(=O)=O)cc2cc1C(c1ccc(Cl)cc1)C1(O)CCNC(c2ccc3ccccc3c2)C1 (stereo not drawn) [Compound 460]
197 °C
